Taken from patent US20260234173A1.

System: hippocampal LTP in rats subjected to Pilo-SE
experiment: Hippocampal LTP in slices from Pilo-SE rats treated in vivo (i.p. or per os)
Design: species or system rat
experimental-context: 5 mg/kg i.p., 1 h after cessation of SE then daily
Below is a list of entries, each paired with its recorded LTP magnitude (EPSP amplitude, % of baseline) value.
Express the result in % but write the number alone.

Below are worked cases with known answers.
[
  {
    "compound": "CC/C=C\\C/C=C\\C/C=C\\C/C=C\\C/C=C\\C/C=C\\CCC(=O)NCCOP(=O)(O)O [synaptamide phosphate]",
    "observed-measurement": 162.3
  },
  {
    "compound": "CCCCCCCCCC(=O)O.NCCO.O=[PH](O)O [DECA-EA-Pn, decanoic acid ethanolamine phosphonate]",
    "observed-measurement": 130.3
  },
  {
    "compound": "CCC=CCC=CCC=CCC=CCC=CCC=CCCC(=O)NCCP(=O)(O)O [synaptamide phosphonate]",
    "observed-measurement": 162.4
  }
]

Proceeding to the next compound to report its LTP magnitude (EPSP amplitude, % of baseline).
Inquiry: // LTP magnitude (EPSP amplitude, % of baseline) lookup, key: CC/C=C\C/C=C\C/C=C\C/C=C\C/C=C\C/C=C\CCC(=O)NCCO [synaptamide, N-Docosahexaenoylethanolamine, reference compound]
Reply text: 151.54
